Reported log10(IC50) values follow for various molecules
- System name: HCV NS3/4A protease genotype 1b (Hepatitis C virus genotype 1b, UniProt P26663)
- Test: HCV NS3/4A protease time-resolved fluorescence (TRF) assay, Ki against genotype 1b
- Format: biochemical
- Condition details: IC50 [gt-1b] (nM), NS3/4A genotype 1b, enzyme 0.2 nM
Base-10 log of IC50, unit nM.

Illustrative cases are given below, each with its answer.
COc1ccc2nc(C(C)C)c3c(c2c1)CC[C@]1(C[C@H]2C(=O)N[C@]4(C(=O)NS(=O)(=O)C5(C)CC5)C[C@H]4/C=C\CCCCC[C@H](NC(=O)OC4(C)CC4)C(=O)N2C1)O3 [Example 165] | -2.30
COc1ccc2nc(C)c3c(c2c1)CC[C@]1(C[C@H]2C(=O)N[C@]4(C(=O)NS(=O)(=O)C5(C)CC5)C[C@H]4/C=C\CCCCC[C@H](Nc4ncccn4)C(=O)N2C1)O3 [Example 57] | -0.86
COc1ccc2nc(C(C)C)c3c(c2c1)CC[C@]1(C[C@H]2C(=O)N[C@]4(C(=O)NS(=O)(=O)C5(C)CC5)C[C@H]4/C=C\CCCCC[C@H](NC(=O)OC(C)(C)C(F)(F)F)C(=O)N2C1)O3 [Example 295] | -1.62
Cc1nc2ccccc2c2c1O[C@]1(CC2O)C[C@H]2C(=O)N[C@]3(C(=O)NS(=O)(=O)C4(C)CC4)C[C@H]3/C=C\CCCCC[C@H](NC(=O)OC(C)C)C(=O)N2C1 (some centres unmarked) [Example 119] | -1.51

Consider the molecule COc1ccc2c3c(c(C4CC4)nc2c1)O[C@]1(CC3)C[C@H]2C(=O)N[C@]3(C(=O)NS(=O)(=O)C4(C)CC4)C[C@H]3/C=C\CCCCC[C@H](NC(=O)NC(C)(C)C)C(=O)N2C1 [Example 132] and give its measured log10(IC50). -2.70

---

- System name: HCV NS3/4A protease genotype 1b (Hepatitis C virus genotype 1b, UniProt P26663)
- Test: HCV NS3/4A protease time-resolved fluorescence (TRF) assay, Ki against genotype 1b
- Assay type: biochemical
- Condition details: IC50 [gt-1b], NS3/4A protease TRF assay, genotype 1b enzyme 0.2 nM
- Description: Measuring NS3/4A Inhibitory Activity (Ki) Against Genotype 1b, Against A156T Mutants and Against Genotype 3a One assay for measuring inhibitory activity is HCV NS3 protease time-resolved fluorescence (TRF) assay as described below and in Mao et al., Anal. Biochem. 373:1-8, 2008 and International Patent Application Publication WO 2006/102087. […]
Reported IC50 values follow for various compounds

COc1ccc2nc(C(F)F)c3c(c2n1)CC[C@]1(C[C@H]2C(=O)N[C@]4(C(=O)NS(=O)(=O)C5(C)CC5)C[C@H]4/C=C\CCCCC[C@H](NC(=O)O[C@@H]4C[C@@H]5C[C@@H]5C4)C(=O)N2C1)O3 | 0.003 nM

Okay, now this compound:
Consider the compound CC(C)(OC(=O)N[C@H]1CCCCC/C=C\[C@@H]2C[C@@]2(C(=O)NS(=O)(=O)C2(C)CC2)NC(=O)[C@@H]2C[C@]3(CCc4c(c(C(F)(F)F)nc5ccc(Cl)cc45)O3)CN2C1=O)C(F)(F)F and give its measured IC50. 0.038 nM

---

- System name: HCV NS3/4A protease genotype 1b (Hepatitis C virus genotype 1b, UniProt P26663)
- Test: HCV NS3/4A protease time-resolved fluorescence (TRF) assay, Ki against genotype 1b
- Type: biochemical
- Condition details: IC50 [gt-1b] (nM), NS3/4A genotype 1b, enzyme 0.2 nM
Please note: IC50 exactly at 0.03 nM is rule not met. Only values below 0.03 nM get rule met.

Completed entries (count: 3):
COc1ccc2nc(C(C)C)c3c(c2c1)C(F)(F)C[C@]1(C[C@H]2C(=O)N[C@]4(C(=O)NS(=O)(=O)C5(C)CC5)C[C@H]4/C=C\CCCCC[C@H](NC(=O)OCC(C)C)C(=O)N2C1)O3 [Example 211] | rule met
Cc1nc2ccccc2c2c1O[C@]1(CC2O)C[C@H]2C(=O)N[C@]3(C(=O)NS(=O)(=O)C4(C)CC4)C[C@H]3/C=C\CCCCC[C@H](NC(=O)OC(C)(C)C)C(=O)N2C1 (stereo partly shown) [Example 120] | rule not met
Cc1nc2ccc(C(F)(F)F)cc2c2c1O[C@]1(CC2)C[C@H]2C(=O)N[C@]3(C(=O)NS(=O)(=O)C4(C)CC4)C[C@H]3/C=C\CCCCC[C@H](NC(=O)OCC(C)C)C(=O)N2C1 [Example 253] | rule met

Confirm or reject: IC50 of Cc1nc2ccc(F)cc2c2c1O[C@]1(CC2)C[C@H]2C(=O)N[C@]3(C(=O)NS(=O)(=O)C4(C)CC4)C[C@H]3/C=C\CCCCC[C@H](NC(=O)OCC(C)C)C(=O)N2C1 [Example 218] lies strictly below 0.03 nM rule met

Confirm or reject: IC50 of COc1ccc2nc(C3CCC3)c3c(c2c1)CC[C@]1(C[C@H]2C(=O)N[C@]4(C(=O)NS(=O)(=O)C5(C)CC5)C[C@H]4/C=C\CCCCC[C@H](NC(=O)OCC(C)C)C(=O)N2C1)O3 [Example 171] lies strictly below 0.03 nM rule met

---

Reported IC50 values follow for various compounds
- System name: HCV NS3/4A protease genotype 1b (Hepatitis C virus genotype 1b)
- Test: HCV NS3/4A protease time-resolved fluorescence (TRF) assay, Ki against genotype 1b
- Assay type: biochemical
- Condition details: IC50 [gt-1b], NS3/4A protease TRF assay, genotype 1b enzyme 0.2 nM

Consider the compound COc1ccc2nc(C)c3c(c2n1)CC[C@]1(C[C@H]2C(=O)N[C@]4(C(=O)NS(=O)(=O)C5(C)CC5)C[C@H]4/C=C\CCCCC[C@H](NC(=O)OC4CCCC4)C(=O)N2C1)O3 [Example 363] and give its measured IC50. 0.011 nM

Consider the compound COc1ccc2nc(C)c3c(c2n1)CC[C@]1(C[C@H]2C(=O)N[C@]4(C(=O)NS(=O)(=O)C5(C)CC5)C[C@H]4/C=C\CCCCC[C@H](NC(=O)OCC(C)C)C(=O)N2C1)O3 [Example 362] and give its measured IC50. 0.008 nM

Consider the compound COc1ccc2nc(C(F)(F)F)c3c(c2c1)[C@H](F)C[C@]1(C[C@H]2C(=O)N[C@]4(C(=O)NS(=O)(=O)C5(C)CC5)C[C@H]4/C=C\CCCCC[C@H](NC(=O)OCC(C)C)C(=O)N2C1)O3 [Example 461] and give its measured IC50. 0.029 nM

Consider the compound COCC1(S(=O)(=O)NC(=O)[C@@]23C[C@H]2/C=C\CCCCC[C@H](NC(=O)OCC(C)(C)C)C(=O)N2C[C@@]4(CCc5c(c(C(F)(F)F)nc6ccc(OC)cc56)O4)C[C@H]2C(=O)N3)CC1 [Example 496] and give its measured IC50. 0.027 nM

Consider the compound CC(C)(C)COC(=O)N[C@H]1CCCCC/C=C\[C@@H]2C[C@@]2(C(=O)NS(=O)(=O)C2(C)CC2)NC(=O)[C@@H]2C[C@]3(CCc4c(c(C(F)F)nc5ccc(Cl)cc45)O3)CN2C1=O [Example 369] and give its measured IC50. 0.018 nM

Consider the compound Cc1ccc2nc(C(F)(F)F)c3c(c2c1)CC[C@]1(C[C@H]2C(=O)N[C@]4(C(=O)NS(=O)(=O)C5(C)CC5)C[C@H]4/C=C\CCCCC[C@H](NC(=O)O[C@@H](C)C(C)C)C(=O)N2C1)O3 [Example 396] and give its measured IC50. 0.009 nM

Consider the compound COCC1(S(=O)(=O)NC(=O)[C@@]23C[C@H]2/C=C\CCCCC[C@H](NC(=O)O[C@@H](C)C(C)C)C(=O)N2C[C@@]4(CCc5c(c(C(F)F)nc6ccc(OC)cc56)O4)C[C@H]2C(=O)N3)CC1 [Example 478] and give its measured IC50. 0.016 nM

Consider the compound COc1ccc2nc(C(F)(F)F)c3c(c2c1)CC[C@]1(C[C@H]2C(=O)N[C@]4(C(=O)NS(=O)(=O)C5(C)CC5)C[C@H]4/C=C\CCCCC[C@H](NC(=O)OC(C)C)C(=O)N2C1)O3 [Example 447] and give its measured IC50. 0.019 nM

Consider the compound COc1cc(Cl)c2nc(C(F)(F)F)c3c(c2c1)CC[C@]1(C[C@H]2C(=O)N[C@]4(C(=O)NS(=O)(=O)C5(C)CC5)C[C@H]4/C=C\CCCCC[C@H](NC(=O)OCC(C)C)C(=O)N2C1)O3 [Example 399] and give its measured IC50. 0.027 nM

---

- System: HCV genotype 1b replicon
- Test: HCV replicon assay, genotype 1b replicon EC50
- Type: cell-based, Hepatitis C virus
- Condition details: Hepatitis C virus, HCV replicon, genotype 1b; read-out: EC50 [gt-1b]
Measurement type: EC50 (nM)
Give the value in nM but do not write nM after it.

Illustrative cases are given below, each with its answer.
CCc1nc2ccc(OC)cc2c2c1O[C@]1(C[C@H]2F)C[C@H]2C(=O)N[C@]3(C(=O)NS(=O)(=O)C4(C)CC4)C[C@H]3/C=C\CCCCC[C@H](NC(=O)OC(C)(C)C)C(=O)N2C1 | 1.55
CCc1nc2ccc(OC)cc2c2c1O[C@]1(CC2)C[C@H]2C(=O)N[C@]3(C(=O)NS(=O)(=O)C4(C)CC4)C[C@H]3/C=C\CCCCC[C@H](NC(=O)c3c(C)n[nH]c3C)C(=O)N2C1 | 0.306
CCc1nc2ccc(OC)cc2c2c1O[C@]1(CC2)C[C@H]2C(=O)N[C@]3(C(=O)NS(=O)(=O)C4(C)CC4)C[C@H]3/C=C\CCCCC[C@H](NC(=O)c3cc(C)cs3)C(=O)N2C1 | 0.438
CC(C)COC(=O)N[C@H]1CCCCC/C=C\[C@@H]2C[C@@]2(C(=O)NS(=O)(=O)C2(C)CC2)NC(=O)[C@@H]2C[C@]3(CCc4c(c(C(F)(F)F)nc5ccc(Cl)cc45)O3)CN2C1=O | 38.3

Okay, now this compound:
Consider the compound CC(C)(C)COC(=O)N[C@H]1CCCCC/C=C\[C@@H]2C[C@@]2(C(=O)NS(=O)(=O)C2(C)CC2)NC(=O)[C@@H]2C[C@]3(CCc4c(c(C(F)F)nc5ccc(Cl)cc45)O3)CN2C1=O and give its measured EC50. 15.1
